Source of measurements: the supplement of paper PMC10567573

Known protein stability index of a selection of variants
B1: KLHDC10 (parent)
chain: PSLLELAWEKLLAAFPNLANLSRT

variants of: B1; assay: protein stability index of a GFP-peptide fusion (GPS, HEK-293T) (PSI 1-6); higher = more stable; settings: c terminus: a fixed tail appended;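 note: lentivirally expressed fusions sorted by FACS into six bins by GFP to DsRed ratio, PSI derived from sequencing read proportions per bin multiplied by bin number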
Output: the number by itself.

sequence-entry | protein stability index
PSLAELAWEKLLAAFPNLANLSRT [L4A] | 3.11
PSLLELAWEKLLAAFPNVANLSRT [L18V] | 1.81
PSLLERAWEKLLAAFPNLANLSRT [L6R] | 1.72
PSLLELAWEKLLAAFSNLANLSRT [P16S] | 1.4
PSLLELAWEKLLAAFPNLANLQRT [S22Q] | 2.38

Task: Look up protein stability index for this variant: PSLLELAWEKLCAAFPNLANLSRT [L12C]
Result: 1.83

Task: Also PSLLEGAWEKLLAAFPNLANLSRT [L6G] ?
Result: 1.64

Task: What about PSLLELAIEKLLAAFPNLANLSRT [W8I] ?
Result: 1.87

Task: Likewise for PSLLELAWEKLLQAFPNLANLSRT [A13Q] ?
Result: 2.25

Task: Another variant: PLLLELAWEKLLAAFPNLANLSRT [S2L]
Result: 2.19

Task: Follow-up entry: PSLHELAWEKLLAAFPNLANLSRT [L4H]
Result: 2.88

Task: Try this variant too: PSLLELAWEKLLAAFPNLAELSRT [N20E]
Result: 2.25

Task: PSLLVLAWEKLLAAFPNLANLSRT [E5V] ?
Result: 1.71

Task: Field entry: PSLLEIAWEKLLAAFPNLANLSRT [L6I]
Result: 2.06

Task: Further, for PSLLELAWEKLLAAFWNLANLSRT [P16W] ?
Result: 2.35

Task: For PSLNELAWEKLLAAFPNLANLSRT [L4N] then?
Result: 2.83

Task: Another variant: PSLLELAWEKLLAAFPPLANLSRT [N17P]
Result: 1.97
